molecular target: BRAF V660E (Homo sapiens, UniProt P15056, V600E); assay: KD BRAF V660E (Table 1; no method described)
Sequence (P15056 2-766 V600E): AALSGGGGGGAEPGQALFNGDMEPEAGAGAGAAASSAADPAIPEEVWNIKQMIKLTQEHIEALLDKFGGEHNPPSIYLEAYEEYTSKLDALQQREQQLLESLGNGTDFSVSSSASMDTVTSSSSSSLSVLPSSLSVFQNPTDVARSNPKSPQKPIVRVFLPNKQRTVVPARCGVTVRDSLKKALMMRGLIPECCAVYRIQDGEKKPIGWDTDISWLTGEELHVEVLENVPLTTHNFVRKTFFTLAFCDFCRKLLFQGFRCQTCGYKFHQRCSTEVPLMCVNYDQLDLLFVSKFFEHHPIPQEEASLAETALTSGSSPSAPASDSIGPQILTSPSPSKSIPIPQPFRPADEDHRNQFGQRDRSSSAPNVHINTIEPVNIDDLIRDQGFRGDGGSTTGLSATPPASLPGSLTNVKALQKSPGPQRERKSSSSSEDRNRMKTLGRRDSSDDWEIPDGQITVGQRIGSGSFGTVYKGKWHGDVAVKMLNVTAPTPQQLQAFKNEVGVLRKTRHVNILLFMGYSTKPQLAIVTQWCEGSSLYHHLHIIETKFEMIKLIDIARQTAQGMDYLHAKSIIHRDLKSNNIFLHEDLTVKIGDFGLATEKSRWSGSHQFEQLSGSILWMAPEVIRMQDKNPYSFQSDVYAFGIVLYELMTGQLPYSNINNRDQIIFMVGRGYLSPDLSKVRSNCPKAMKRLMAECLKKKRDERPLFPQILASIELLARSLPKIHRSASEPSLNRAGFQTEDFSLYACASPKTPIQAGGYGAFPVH
pKd: −log10 of the molar value.
PARAMETER: pKd

| COMPOUND | pKd |
| --- | --- |
| CC(=O)N1CCC(NC(=O)CCCNc2ncc3cc(-c4c(F)ccc(NS(=O)(=O)N5CC[C@@H](F)C5)c4F)c(=O)n(C)c3n2)CC1 | 7.22 |
| CC(=O)NCCOCCNc1ncc2cc(-c3c(F)ccc(NS(=O)(=O)N4CC[C@@H](F)C4)c3F)c(=O)n(C)c2n1 | 7.22 |
| Cn1c(=O)c(-c2c(F)ccc(NS(=O)(=O)N3CC[C@@H](F)C3)c2F)cc2cnc(NCCCC(=O)OC(C)(C)C)nc21 | 7.32 |
| Cl.NCCOCCOCCn1c(=O)c(-c2c(F)ccc(NS(=O)(=O)N3CC[C@@H](F)C3)c2F)cc2cnc(NCC3CC3)nc21 [Example 39, hydrochloride] | 7.38 |
| CN(C1CC1)S(=O)(=O)Nc1ccc(F)c(-c2cc3cnc(NCC4CC4)nc3n(C)c2=O)c1F | 6.31 |

(I) CC(=O)N1CCN(CCNc2ncc3cc(-c4c(F)ccc(NS(=O)(=O)N5CC[C@@H](F)C5)c4F)c(=O)n(C)c3n2)CC1
(II) CC(=O)N(C)Cc1cccc(CCNc2ncc3cc(-c4c(F)ccc(NS(=O)(=O)N5CC[C@@H](F)C5)c4F)c(=O)n(C)c3n2)c1
(III) CCN(C)S(=O)(=O)Nc1ccc(F)c(-c2cc3cnc(NCCCNC)nc3n(C)c2=O)c1F.Cl [Example 17, hydrochloride]
(IV) Cl.Cn1c(=O)c(-c2c(F)ccc(NS(=O)(=O)N3CC[C@@H](F)C3)c2F)cc2cnc(NCCOCCN)nc21 [Example 15, hydrochloride]
Prompt: Please order the records by their reported pKd, lowest number first. Please respond with the labels ordered as the question requires.
Response: III, IV, I, II

(1) CC(=O)N1CC(Nc2ncc3cc(-c4c(F)ccc(NS(=O)(=O)N5CC[C@@H](F)C5)c4F)c(=O)n(C)c3n2)C1
(2) Cn1c(=O)c(-c2c(F)ccc(NS(=O)(=O)N3CC[C@@H](F)C3)c2F)cc2cnc(NCCc3cnc(CC(=O)OC(C)(C)C)nc3)nc21
(3) Cn1c(=O)c(-c2c(F)ccc(NS(=O)(=O)N3CCCC3)c2F)cc2cnc(NCCC3CCN(C(=O)OC(C)(C)C)CC3)nc21
(4) CCN(C)S(=O)(=O)Nc1cccc(-c2cc3cnc(NCCC4CCN(C(C)=O)CC4)nc3n(C)c2=O)c1C#N
Prompt: Please order the records by their reported pKd, lowest number first. Please respond with the labels ordered as the question requires.
Response: 3, 2, 1, 4

(a) CC(=O)NCCCCCNc1ncc2cc(-c3c(F)ccc(NS(=O)(=O)N4CC[C@@H](F)C4)c3F)c(=O)n(C)c2n1
(b) CC(=O)NCCOCCOCCn1c(=O)c(-c2c(F)ccc(NS(=O)(=O)N3CC[C@@H](F)C3)c2F)cc2cnc(NCC3CC3)nc21
(c) CNCCCNc1ncc2cc(-c3c(F)ccc(NS(=O)(=O)N4CC[C@@H](F)C4)c3F)c(=O)n(C)c2n1.Cl [Example 16, hydrochloride]
(d) CCN(C)S(=O)(=O)Nc1ccc(F)c(-c2cc3cnc(NCC4CC4)nc3n(CCOCc3ccccc3)c2=O)c1F
Prompt: Please order the records by their reported pKd, lowest number first. Please respond with the labels ordered as the question requires.
Response: d, c, b, a

(a) Cn1c(=O)c(-c2c(F)ccc(NS(=O)(=O)N3CC[C@@H](F)C3)c2F)cc2cnc(NCC3CC3)nc21
(b) Cn1c(=O)c(-c2c(F)ccc(NS(=O)(=O)C3CCCC3)c2F)cc2cnc(NCCC3CCN(C(=O)OC(C)(C)C)CC3)nc21
(c) Cn1c(=O)c(-c2c(F)ccc(NS(=O)(=O)N3CC[C@@H](F)C3)c2F)cc2cnc(NCCc3ccc(CC(=O)OC(C)(C)C)cc3)nc21
(d) CC(=O)N1Cc2ccc(CCNc3ncc4cc(-c5c(F)ccc(NS(=O)(=O)N6CC[C@@H](F)C6)c5F)c(=O)n(C)c4n3)cc2C1
Prompt: Please order the records by their reported pKd, lowest number first. Please respond with the labels ordered as the question requires.
Response: b, c, a, d

(a) CC(=O)N(C)CCCNc1ncc2cc(-c3c(F)ccc(NS(=O)(=O)N4CC[C@@H](F)C4)c3F)c(=O)n(C)c2n1
(b) CCN(C)S(=O)(=O)Nc1ccc(F)c(-c2cc3cnc(NCCOCCOCCO)nc3n(C)c2=O)c1F
(c) Cn1c(=O)c(-c2c(F)ccc(NS(=O)(=O)N3CC[C@@H](F)C3)c2F)cc2cnc(NCCCc3ccccc3)nc21
Prompt: Please order the records by their reported pKd, lowest number first. Please respond with the labels ordered as the question requires.
Response: b, c, a

(P) CC(=O)N1CCC(CCNc2ncc3cc(-c4c(F)ccc(NS(=O)(=O)N5CC[C@@H](F)C5)c4F)c(=O)n(C)c3n2)CC1
(Q) Cl.O=c1c(-c2c(F)ccc(NS(=O)(=O)N3CC[C@@H](F)C3)c2F)cc2cnc(NCC3CC3)nc2n1C1CCNC1 (mixture of isomers) [Example 40, hydrochloride]
Prompt: Please indicate which has the smaller reported pKd: P , or Q . Pick one; state its label.
Response: Q
(Q: 6.39, P: 7.57)

* * *

target: BRAF V660E (Homo sapiens, UniProt P15056, V600E); assay: KD BRAF V660E (Table 1; no method described)
pKd: −log10 of the molar value.
PARAMETER: pKd

Examples with their reported pKd follow.
| MOLECULE | pKd |
| --- | --- |
| Cn1c(=O)c(-c2c(F)ccc(NS(=O)(=O)N3CC[C@@H](F)C3)c2F)cc2cnc(NCCc3ccccc3)nc21 | 7.64 |
| CC(=O)N[C@@H]1CC[C@@H](Nc2ncc3cc(-c4c(F)ccc(NS(=O)(=O)N5CC[C@@H](F)C5)c4F)c(=O)n(C)c3n2)C1 (racemic) | 7.68 |
| Cl.Cn1c(=O)c(-c2c(F)ccc(NS(=O)(=O)N3CC[C@@H](F)C3)c2F)cc2cnc(NCCC3CCNCC3)nc21 [Example 14, hydrochloride] | 6.97 |
| CCN(C)S(=O)(=O)Nc1ccc(F)c(-c2cc3cnc(NCC4CC4)nc3n(C)c2=O)c1F | 6.36 |
| CC(=O)NCc1ccc(CCNc2ncc3cc(-c4c(F)ccc(NS(=O)(=O)N5CC[C@@H](F)C5)c4F)c(=O)n(C)c3n2)cc1 | 7.66 |
| CC(=O)N1CCC(CCCNc2ncc3cc(-c4c(F)ccc(NS(=O)(=O)N5CC[C@@H](F)C5)c4F)c(=O)n(C)c3n2)CC1 | 7.28 |
| Cn1c(=O)c(-c2c(F)ccc(NS(=O)(=O)N3CC[C@@H](F)C3)c2F)cc2cnc(NCCC3CCN(C(=O)OC(C)(C)C)CC3)nc21 | 6.72 |
| CC(=O)N1CCc2ccc(CCNc3ncc4cc(-c5c(F)ccc(NS(=O)(=O)N6CC[C@@H](F)C6)c5F)c(=O)n(C)c4n3)cc2C1 | 7.86 |

(P) CC(=O)N1CCC(CNc2ncc3cc(-c4c(F)ccc(NS(=O)(=O)N5CC[C@@H](F)C5)c4F)c(=O)n(C)c3n2)CC1
(Q) CC(=O)N1CCC(n2c(=O)c(-c3c(F)ccc(NS(=O)(=O)N4CC[C@@H](F)C4)c3F)cc3cnc(NCC4CC4)nc32)C1 (mixture of isomers)
Prompt: Which one would you say has the larger pKd value: P , or Q ? Pick one; state its label.
Response: Q

(I) Cn1c(=O)c(-c2c(F)ccc(NS(=O)(=O)N3CC[C@@H](F)C3)c2F)cc2cnc(NCCOCCOCCO)nc21
(II) Cn1c(=O)c(-c2c(F)ccc(NS(=O)(=O)N3CC[C@@H](F)C3)c2F)cc2cnc(NC3CCCC3)nc21
Prompt: Which one would you say has the larger pKd value: I , or II ? Pick one; state its label.
Response: I

* * *

Record type: pKd measurement. Applies to: BRAF (Homo sapiens)
pKd: −log10 of the molar value.
PARAMETER: pKd

| COMPOUND | MEASURED_ON | pKd |
| --- | --- | --- |
| Cl.O=c1c(-c2c(F)ccc(NS(=O)(=O)N3CC[C@@H](F)C3)c2F)cc2cnc(NCC3CC3)nc2n1C1CCNC1 (mixture of isomers) [Example 40, hydrochloride] | BRAF (Homo sapiens) | 6.84 |

(I) CCN(C)S(=O)(=O)Nc1ccc(F)c(-c2cc3cnc(NCC4CC4)nc3n(C)c2=O)c1F
(II) Cl.Cn1c(=O)c(-c2c(F)ccc(NS(=O)(=O)N3CC[C@@H](F)C3)c2F)cc2cnc(NCCCC(=O)NC3CCNCC3)nc21 [Example 19, hydrochloride]
Prompt: Which one would you say has the larger pKd value: I , or II ? Pick one; state its label.
Response: II
(II: 7.42, I: 6.80)
